# experiment_summary: Quantitative High-Throughput drug screen in 47 multiple myeloma cell lines against the NCATS MIPE library collection: PE2_PLB cell viability assay (AID 1919869); also: nearly all actives have a fitted effect of over 35% in size; also: potency is read from the fitted curve at half-maximal effect
# conditions_used: PE2_PLB myeloma cells viability, ATP luminescence, 48 h; series mostly up to 45.8 µM
Records with an inconclusive call do not appear. Activity calls are given as the source filed them. Calls follow the shape of the dose curve; as a rule, active = well fitted cell-killing curve with a large enough effect; inconclusive = small, poorly fitted or top-dose-only effect, or effect the other way; inactive = no such curve, though single readings can be large or run the other way.
measurement_name: Potency

Take a look at these entries with their results.
{"columns": ["compound", "Potency"],
 "data": [
  ["S=C(NCc1ccc2c(c1)OCO2)N1CCN(c2ncnc3c2oc2ccccc23)CC1", "6.79 µM (active)"],
  ["CCCCCCCc1ccc(CCc2cccc(O)c2C(=O)O)cc1", "20.9 µM (active)"],
  ["CCOC(=O)C1=C[C@]2(CC)CCCN3CCc4c(n1c1ccccc41)[C@@H]32", "9.35 µM (active)"],
  ["CN(C(=O)c1ccc(F)cc1C(F)(F)F)C1CCN(c2nnc(-c3ccnn3C)c3ccccc23)CC1", "18.7 µM (active)"],
  ["CCOc1cc(N2CCC(O)CC2)ccc1Nc1ncc2c(n1)N(C)c1ccccc1C(=O)N2C", "3.72 µM (active)"],
  ["CNCc1ccc(-c2[nH]c3cc(F)cc4c3c2CCNC4=O)cc1", "inactive"],
  ["Cc1ccc(NC(=O)c2cccc(C(C)(C)C#N)c2)cc1Nc1ccc2ncn(C)c(=O)c2c1", "5.9 µM (active)"],
  ["COCC(=O)NCC=Cc1ccc2ncnc(Nc3ccc(Oc4ccc(C)nc4)c(C)c3)c2c1", "16.6 µM (active)"]
]}

stdin: Name the recorded Potency for CS(=O)(=O)c1cccc(CNc2nc(Nc3ccc4c(c3)CCC(=O)N4)ncc2C(F)(F)F)c1 .
stdout: 18.7 µM (active)

stdin: Potency lookup needed for Cc1cc(Nc2nc(N[C@@H](C)c3ncc(F)cn3)ncc2Cl)n[nH]1 , thanks.
stdout: 10.5 µM (active)

stdin: Request the reported Potency associated with Cn1cnc2c(F)c(Nc3ccc(Br)cc3Cl)c(C(=O)NOCCO)cc21
stdout: 0.235 µM (active)

====

# System: Zika virus NS2B-NS3 protease (linked construct)
# experiment_summary: Confirmatory screen NINDS AMC qHTS for Zika virus inhibitors (AID 1347152); also: nearly all actives have a fitted effect of over 70% in size
# conditions_used: Purified linked NS2B-NS3, AMC substrate fluorescence; series mostly up to 56.6 µM
Records with an inconclusive call do not appear. The source made the active and inactive calls. The call rests on the fitted dose curve; in most records, active means well fitted inhibition curve with a large enough effect; inconclusive means small, poorly fitted or top-dose-only effect; inactive means flat fitted curve, though single readings scatter.
Form entry, call: pick from YES = active, NO = inactive

{"columns": ["smiles_notation", "category_label"],
 "data": [
  ["Cc1[nH]c(=O)c(C#N)cc1-c1ccc2nccn2c1", "NO"],
  ["CN1CCN(CCCN2c3ccccc3Sc3ccc(C(F)(F)F)cc32)CC1", "NO"],
  ["Cc1cc(SCc2sc(-c3ccc(C(F)(F)F)cc3)nc2C)ccc1OCC(=O)O", "YES"]
]}

stdin: Lab log entry: CC(C)c1onc(-c2c(Cl)cccc2Cl)c1COc1ccc(/C=C/c2cccc(C(=O)O)c2)c(Cl)c1 — outcome as called in the assay?
stdout: YES

stdin: Fill in: this test's call for CCCc1nc2c(C)cc(-c3nc4ccccc4n3C)cc2n1Cc1ccc(-c2ccccc2C(=O)O)cc1 is ___
stdout: YES

====

# Test system: CP237
# experiment_summary: qHTS profiling for inhibitors of Plasmodium falciparum proliferation (AID 504749); also: nearly all actives have a fitted effect of over 60% in size; also: potency is read from the fitted curve at half-maximal effect
# conditions_used: P. falciparum in erythrocytes, SYBR Green DNA, 72 h; series mostly up to 28.7 µM
Records with an inconclusive call do not appear. Activity calls are given as the source filed them. Calls come from the whole dose curve; as a rule, active = well fitted inhibition curve with a large enough effect; inconclusive = small, poorly fitted or top-dose-only effect; inactive = flat fitted curve, though single readings scatter.
measurement_name: Potency

Here's what some known entries look like.
{"columns": ["compound", "Potency"],
 "data": [
  ["CC(C)NCC(O)COc1ccc(COCCOC(C)C)cc1 (configuration not stated)", "inactive"],
  ["NC(N)=NC(=O)c1nc(Cl)c(N)nc1N", "8.91 µM (active)"],
  ["CCCc1nc2c(C)cc(-c3nc4ccccc4n3C)cc2n1Cc1ccc(-c2ccccc2C(=O)O)cc1", "4.47 µM (active)"],
  ["Clc1cccc(Cl)c1NC1=NCCN1", "inactive"],
  ["OC(CN1CCC(Cc2ccc(F)cc2)CC1)c1ccc(Cl)cc1 (configuration not stated)", "2.51 µM (active)"],
  ["CC(c1cc2ccccc2s1)N(O)C(N)=O (configuration not stated)", "inactive"]
]}

stdin: Quick check: Potency of CC(=O)Oc1ccccc1C(=O)O ?
stdout: inactive

stdin: Name the reported Potency value associated with the compound NC[C@H](O)c1ccc(O)c(O)c1
stdout: inactive

stdin: Please look up its Potency: O=C1CCc2cc(OCCCCc3nnnn3C3CCCCC3)ccc2N1
stdout: inactive

stdin: # get_value(readout='Potency', item= O=c1n(CCCN2CCN(c3cccc(Cl)c3)CC2)nc2ccccn12 )
stdout: inactive

stdin: For the compound shown here, Cc1ccc(N(CC2=NCCN2)c2cccc(O)c2)cc1 , give the reported Potency.
stdout: inactive

stdin: What does the record list as Potency for CC(C)C[C@H](NC(=O)[C@@H](O)[C@H](N)Cc1ccccc1)C(=O)O ?
stdout: 4.47 µM (active)
